Ref: patent US20170247335A1

Target: PDE4 (recombinant human phosphodiesterases PDE4B2 and PDE4D)
Experiment: PDE4 enzyme inhibition, colorimetric cAMP cleavage test (5'-nucleotidase, Biomol Green)
Conditions: average of three independent determinations; non-linear regression; 60 min incubation, 2% DMSO; read-out: CI50 (inhibitory concentration 50)
Attribute Measured: pIC50
Scale explanation: pIC50 corresponds to minus log10 of a concentration expressed in moles per litre.

Lab note: need pIC50 for COc1ccc(-c2cc(C(F)(F)F)c(=O)[nH]n2)cc1OC [compound (Ic)] on PDE4 (recombinant human phosphodiesterases PDE4B2 and PDE4D), anyone have it?
5.09

Lookup: pIC50 / PDE4 (recombinant human phosphodiesterases PDE4B2 and PDE4D) / Cc1ccc(-c2cc(C(F)(F)F)c(=O)n(-c3ccccc3)n2)cc1 [compound (Ig)]
4.82

Could you share what pIC50 was measured for COc1cc(-c2cc(C(F)(F)F)c(=O)[nH]n2)ccc1OC(F)F [compound (Ii)] , tested on PDE4 (recombinant human phosphodiesterases PDE4B2 and PDE4D)?
6.60
